# Test system: NCI-H1651
# Method description: relative viability (nuclei count vs DMSO), 5 days (fraction); higher = more cells survive
# Test context: first compound 0.0002 µM
Quick rule for you: relative viability under 0.8 gets Fulfilled, anything else gets Not fulfilled.

Item CC(=O)O[C@@]12CO[C@@H]1C[C@H](O)[C@@]1(C)C(=O)[C@H](O)C3=C(C)[C@@H](OC(=O)[C@H](O)[C@@H](NC(=O)OC(C)(C)C)c4ccccc4)C[C@@](O)([C@@H](OC(=O)c4ccccc4)[C@H]21)C3(C)C [Docetaxel] + C[C@]1(O)C[C@@H](c2nc(-c3ccc4ccc(-c5ccccc5)nc4c3)c3c(N)nccn32)C1 [Linsitinib] (partner 1 µM) : relative viability beneath 0.8, strictly? Not fulfilled

I wonder whether CC(=O)O[C@@]12CO[C@@H]1C[C@H](O)[C@@]1(C)C(=O)[C@H](O)C3=C(C)[C@@H](OC(=O)[C@H](O)[C@@H](NC(=O)OC(C)(C)C)c4ccccc4)C[C@@](O)([C@@H](OC(=O)c4ccccc4)[C@H]21)C3(C)C [Docetaxel] + Cc1cc(Nc2cc(N3CCN(C)CC3)nc(Sc3ccc(NC(=O)C4CC4)cc3)n2)n[nH]1 [Tozasertib] (partner 0.1 µM) has relative viability below 0.8. Can you tell? Fulfilled

Bench note: check whether CC(=O)O[C@@]12CO[C@@H]1C[C@H](O)[C@@]1(C)C(=O)[C@H](O)C3=C(C)[C@@H](OC(=O)[C@H](O)[C@@H](NC(=O)OC(C)(C)C)c4ccccc4)C[C@@](O)([C@@H](OC(=O)c4ccccc4)[C@H]21)C3(C)C [Docetaxel] + CC(=O)Nc1cccc(-n2c(=O)n(C3CC3)c(=O)c3c(Nc4ccc(I)cc4F)n(C)c(=O)c(C)c32)c1 [Trametinib] (partner 0.02 µM) shows relative viability below 0.8 Not fulfilled

Strictly below 0.8 in relative viability? CC(=O)O[C@@]12CO[C@@H]1C[C@H](O)[C@@]1(C)C(=O)[C@H](O)C3=C(C)[C@@H](OC(=O)[C@H](O)[C@@H](NC(=O)OC(C)(C)C)c4ccccc4)C[C@@](O)([C@@H](OC(=O)c4ccccc4)[C@H]21)C3(C)C [Docetaxel] + CS(=O)(=O)N1CCN(Cc2cc3nc(-c4cccc5[nH]ncc45)nc(N4CCOCC4)c3s2)CC1 [Pictilisib] (partner 1 µM) Fulfilled

Quick check: relative viability of CC(=O)O[C@@]12CO[C@@H]1C[C@H](O)[C@@]1(C)C(=O)[C@H](O)C3=C(C)[C@@H](OC(=O)[C@H](O)[C@@H](NC(=O)OC(C)(C)C)c4ccccc4)C[C@@](O)([C@@H](OC(=O)c4ccccc4)[C@H]21)C3(C)C [Docetaxel] + O=C(CCCCCCC(=O)Nc1ccccc1)NO [Vorinostat] (partner 1 µM) under 0.8? Fulfilled

Decide: relative viability of CC(=O)O[C@@]12CO[C@@H]1C[C@H](O)[C@@]1(C)C(=O)[C@H](O)C3=C(C)[C@@H](OC(=O)[C@H](O)[C@@H](NC(=O)OC(C)(C)C)c4ccccc4)C[C@@](O)([C@@H](OC(=O)c4ccccc4)[C@H]21)C3(C)C [Docetaxel] + Nc1ncn([C@H]2C[C@H](O)[C@@H](CO)O2)c(=O)n1 [Decitabine] (partner 2 µM) strictly below 0.8? Fulfilled
